# nuclei count per record follows
Protocol Details: endothelial E-selectin expression blockers – imaging, HUVEC, immunofluorescence, MLSMR starter and 10KST1 sets, primary screen (AID 487);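 further: 100% = median nuclei count of all wells on the same plate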
Conditions Used: HUVEC TNFalpha-induced E-selectin immunofluorescence imaging, at 2 µM; measured here: cell number, toxicity

| Molecule | nuclei count, % |
| --- | --- |
| CCNCCNC(=O)c1c(O)c2ccccc2n(CC)c1=O | 99.7 |
| COc1ccccc1C(=O)Nc1c2c(nn1-c1cccc(C)c1C)CS(=O)(=O)C2 | 106 |
| CN1CCCN(C(=O)c2cc(=O)[nH]c3ccccc23)c2nc3ccccc3nc21 | 117 |
| CN(C(=O)c1c(Cl)nc2sccn12)C1CCCCC1 | 162 |
| O=C(NCc1ccco1)Nc1ccc2nsnc2c1 | 119 |
| CC[C@H]1CN2CCc3cc(OC)c(OC)cc3[C@@H]2C[C@@H]1C[C@H]1NCCc2cc(OC)c(OC)cc21 | 103 |
| CCOC(=O)C1CCN(C(=O)c2ccc(OC)cc2OC)CC1 | 86.8 |
| Cc1cn([C@H]2C=C[C@@H](CO)O2)c(=O)[nH]c1=O | 123 |
| COC(=O)CN(c1ccc(F)cc1)S(=O)(=O)c1ccccc1 | 95.6 |
| COc1ccc(OC)c(C2=NOC(C(=O)NCCN3CCOCC3)C2)c1 (stereo unspecified) | 85.7 |
| Cc1ccc(-c2ccc(/C=N/n3cnnc3)o2)cc1Cl | 110 |

###

Protocol Details: TLR3 IRF3 reporter activation blockers – cell-based, poly I:C stimulus, luciferase, 10K MLSCN set, primary screen (AID 602277)
Conditions Used: HEK293-TLR3 RL24 IRF3 luciferase reporter, at 10 µM
The source made the active and inactive calls.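 Rule for the calls: active = inhibition of the reporter signal at or above 50%; inactive = inhibition below 50%.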
Labels: T for active, F for inactive

| Molecule | Discrete Label |
| --- | --- |
| COCCn1cc(C(=O)NCCCN2CCC(C)CC2)c2c3ccccc3n(C)c2c1=O | F |
| O=c1c2c(nc3nc(COc4ccccc4)[nH]n13)CCC2 | F |
| Cc1noc(C)c1S(=O)(=O)Nc1c(C)n(C)n(-c2ccccc2)c1=O | F |
| COC(=O)c1[nH]c2c(c1C)C(=O)CC(c1cccs1)C2 (stereo not given) | T |
| ON1C2CCCCC2N(O)C1c1c(F)c(F)c(F)c(F)c1F (stereo not given) | F |
| Cc1ccc(-n2ncc3c(N4CCN(c5ccc(F)cc5)CC4)ncnc32)c(C)c1 | F |
| CC(C)(C)OC(=O)N1CCC(C(=O)N[C@H](Cc2ccccc2)C(=O)O)CC1 | F |
| COc1ccc(CN(C(=O)CNC(=O)c2ccco2)C(C(=O)NC2CCCC2)c2ccco2)cc1 (stereo not given) | F |
| CCC(C)(NC(=O)c1ccc(=O)[nH]c1)C(=O)NC1CCCC1 (stereo not given) | F |
| COc1ccccc1-n1nnnc1SCc1ccccc1 | F |
| CC1CCN(C(=S)c2ccccc2O)CC1 | F |
| CCn1nnnc1NCc1cccn1C | F |
| O=C(NCCc1ccccc1)C1CCN(S(=O)(=O)N2CCC3(CC2)OCCO3)CC1 | F |
| COc1ccc(C)cc1-n1nnnc1SCC(=O)NC(=O)NCc1ccco1 | F |
| COc1ccc(CCNC(=O)c2nc3ncccn3n2)cc1OC | F |
| CC(C)Oc1ccc(C2C(C(=O)c3ccco3)=C(O)C(=O)N2CCCN(C)C)cc1 (stereo not given) | F |
| CC(C)NC(=O)c1ccccc1NC(=O)c1ccccc1N(C)S(C)(=O)=O | F |
| CC(C)Oc1cccc(-c2cc(C(=O)N3CCN(S(C)(=O)=O)CC3)c3ccccc3n2)c1 | F |
| CCn1ncc(C2=NOC(C(=O)NCc3ccc(Cl)cc3)C2)c1C (stereo not given) | T |
| O=C(Nc1ccc2c(c1)OCO2)c1ccc(Br)c(S(=O)(=O)N2CCCC2)c1 | F |
| CCOc1ccc(OCc2ccc(C(=O)Nc3cccc(C)n3)o2)cc1 | F |
| O=C(Nc1ccccc1)c1ccc(NCC2CCCO2)c(S(=O)(=O)N2CCOCC2)c1 (stereo not given) | F |
| Cc1ccc(-c2cc(C(=O)N3CCCC3)no2)cc1 | F |
| CCOc1ccc(OCC)c(NC(=O)C2CCN(S(=O)(=O)c3cnc[nH]3)CC2)c1 | F |
| COc1ccc(N(CC(=O)Nc2ccccc2SC)S(C)(=O)=O)cc1OC | F |
| CCNc1nc(NCC)n2c(SCc3nc4ccccc4c(=O)[nH]3)nnc2n1 | F |
| COC(=O)c1[nH]c2cccc(C)c2c1NC(=O)CN1CCCc2ccccc21 | F |
| Cc1cc(C)c2c(N)c(C(=O)N3CCN(c4ncccn4)CC3)sc2n1 | F |
| Cc1cc(C)cc(N2CCCn3c2nc2c3c(=O)n(CCN3CCOCC3)c(=O)n2C)c1 | F |
| CC(=O)c1cc(-c2ccccc2)n(CC(=O)N2CCN(C3CCCC3)CC2)c1C | F |
| Cc1ccc(CNC(=O)CCCn2c(=O)c3ccccc3n(CC(=O)NCc3ccco3)c2=O)cc1 | F |
| CCOc1ccc(N2CC(C(=O)Nc3ccc(F)cc3F)CC2=O)cc1 (stereo not given) | F |
| c1ccc2c(c1)CCCC2C1=NCCN1 (stereo not given) | F |
| N#Cc1c(N)nc(SCc2ccncc2)c(C#N)c1-c1cccs1 | F |
| Cn1c(=O)n(C)c2cc(CNc3ccc(N4CCOCC4)c(C(=O)O)c3)ccc21 | F |
| COc1ccc(-n2ncc3c(NCc4ccccn4)ncnc32)cc1 | F |
| CCOC(=O)c1[nH]c2ccc(F)cc2c1NC(=O)C(C)N1CCc2cc(OC)c(OC)cc2C1 (stereo not given) | F |
| COC(=O)c1oc2ccc(OC)cc2c1N | F |
| CCOC(=O)C1CCCN(Cc2nc(N)nc(Nc3ccccc3)n2)C1 (stereo not given) | F |
| Cc1nc2cccc(C(=O)NC3CCCCC3)c2o1 | F |
| O=C(NCc1ccco1)C1CC(=O)N(c2ccc(F)cc2)C1 (stereo not given) | F |
| Clc1ccc(Cc2nn3c(-c4ccncc4)nnc3s2)cc1 | F |
| N#Cc1cnc(SCC(=O)Nc2ccccc2C(F)(F)F)nc1N | F |
| c1ccc2c(c1)ccc1nnc(-c3ccc4c(c3)OCO4)n12 | F |
| CCSc1ncc(C#N)c(=O)[nH]1 | F |

Source: PubChem BioAssay
